The origin of these recorded values is paper PMC10016340.

pKd: −log10 of the molar value.
pKd data for αSO (Homo sapiens) follow.
Measured Quantity: pKd

Cc1cc(C(C)(C)CC(C)(C)C)ccc1OCCOCC[N+](C)(C)Cc1ccccc1 : 3.92
[H]/N=C(\N/C(=N/[H])NCCCCCCNC(=N)NC(=N)Nc1ccc(Cl)cc1)Nc1ccc(Cl)cc1 : 3.89

----------
# Tested System: UniProt P37840
# Assay Explanation: biochemical
# Type: binding
# Condition Set: 2 mM compound, 1 μg mL^−1 αSOs
Measured Quantity: αSO binding signal in sandwich ELISA vs positive control

Cc1cc(C(C)(C)CC(C)(C)C)ccc1OCCOCC[N+](C)(C)Cc1ccccc1 [A2, Methyl benzethonium] : decrease in binding
[H]/N=C(\N/C(=N/[H])NCCCCCCNC(=N)NC(=N)Nc1ccc(Cl)cc1)Nc1ccc(Cl)cc1 [A1, Chlorhexidine] : decrease in binding
